Each entry below carries its recorded Percent Effect.
tested on: Wolbachia pipientis; experiment: Anti-Wolbachia Cell-Based Screen; type: functional; parameters: scale not given: in the data most compounds retested in dose-response had high values; details: 5 µM
In all, about 48,000 compounds went through this assay and about 13,000 (27%) showed an effect of 50% or more. Some of the results follow.
ATTRIBUTE MEASURED: Percent Effect (%)

COMPOUND | TARGET SYSTEM | ATTRIBUTE MEASURED | RECORDED NUMBER
Cl.Cl.c1ccc(COC[C@@H]2CCC[C@@]23CNCCO3)nc1 | Wolbachia pipientis | Percent Effect | 92.25
Cc1ccc(CC(=O)N2CCCN(Cc3nccn3C)CC2)cn1 | Wolbachia pipientis | Percent Effect | 118.2
Cc1nc(CC(=O)N2CCN(Cc3ccc(C#N)cc3)CC2)cs1 | Wolbachia pipientis | Percent Effect | -1.564
Cc1ccc(NC(=O)CNC(C)Cc2ccsc2)cc1F (stereo unspecified) | Wolbachia pipientis | Percent Effect | 8.644
CCn1ccnc1CN1CCCN(C(=O)Cc2ccc(C)s2)CC1 | Wolbachia pipientis | Percent Effect | 99.83
Cl.Cl.c1ccc(COC[C@H]2CCC[C@@]23CNCCO3)nc1 | Wolbachia pipientis | Percent Effect | 88.66

====

test system: Wolbachia pipientis; assay: Anti-Wolbachia Cell-Based Screen; type: functional; set-up: scale not given: in the data most compounds retested in dose-response had high values; settings: 5 µM
The campaign covered roughly 48,000 compounds. About 13,000 (27%) showed an effect of 50% or more. The list shows a part of the results.
ATTRIBUTE MEASURED: Percent Effect (%)

MOLECULE | RECORDED NUMBER
CC(C)NC(=O)c1ccc2c(c1)C1(CCN(C(C)C)CC1)C(=O)N2.O=C(O)C(F)(F)F | 106.4
Cn1cc(CN2C[C@H]3CN(c4cncnc4)C(=O)[C@H]3C2)cn1.O=C(O)C(F)(F)F | -0.6359
CC(C)NC(=O)c1ccc2c(c1)C1(CCN(C)CC1)C(=O)N2.O=C(O)C(F)(F)F | 109.7
O=C(N[C@H]1CN2CCC1CC2)c1cc(Cn2cnc3ccccc32)[nH]n1 | -21.06
CCN1CCN(c2ccc(C(=O)NCCOC)cc2F)CC1 | -17.47
CC(C)CN1CCC2(CC1)C(=O)Nc1ccc(C(=O)N(C)C)cc12.O=C(O)C(F)(F)F | -3.196
CC(C)CN1CCC2(CC1)C(=O)Nc1ccc(C(=O)NC(C)C)cc12.O=C(O)C(F)(F)F | 99.87
CNC(=O)c1ccc2c(c1)C1(CCN(CC(C)C)CC1)C(=O)N2.O=C(O)C(F)(F)F | -7.062
CC(C)N1C(=O)C2(CCN(C)CC2)c2cc(F)ccc21.Cl | -32.23

====

tested on: Wolbachia pipientis; assay: Anti-Wolbachia Cell-Based Screen; format: functional; parameters: scale not given: in the data most compounds retested in dose-response had high values; settings: 5 µM
Among all 48,000 compounds or so, about 13,000 (27%) showed an effect of 50% or more. This is one part of the list.
ATTRIBUTE MEASURED: Percent Effect (%)

COMPOUND | ATTRIBUTE MEASURED | RECORDED NUMBER
COC(=O)c1ccc(C2SCC(=O)Nc3ccsc32)cc1 (stereo not given) | Percent Effect | -2.415
Fc1cnc(N2CCN3C[C@H](Oc4cccnc4)C[C@H]3C2)nc1.O=C(O)C(F)(F)F.O=C(O)C(F)(F)F.O=C(O)C(F)(F)F | Percent Effect | 90.39
O=C(O)C(F)(F)F.O=C(O)C(F)(F)F.O=C(O)C(F)(F)F.c1cnc(NC[C@H]2OC[C@@H]3CCN(Cc4nccs4)C[C@@H]32)nc1 | Percent Effect | 101
O=C(c1ccco1)N1CCN2C[C@H](Oc3cncnc3)C[C@H]2C1 | Percent Effect | 1.787
CC(C)(C)n1ncc2c1NC(=O)CSC2c1ccc2c(c1)OCCO2 (stereo not given) | Percent Effect | 117.6
CS(=O)(=O)N1CCC(C(=O)N2CCC3(CC2)OCCCO3)CC1 | Percent Effect | 6.012
CCC(O)CN1CCN(C(=O)Cc2c(C)nc(C)[nH]c2=O)CC1 (stereo not given) | Percent Effect | -7.478
Cc1ccc(N2C[C@@H]3OCCN(Cc4c(C)noc4C)[C@@H]3C2)nn1 | Percent Effect | 99.73
CCC(O)CN1CCN(C(=O)Cc2ccc(OC)cc2OC)CC1 (stereo not given) | Percent Effect | 102.8
O=C(C1CCC1)N1CCC2(CC1)CNCCO2 | Percent Effect | -23.25
CC(C)N1[C@H](Cn2cncn2)C[C@@H]2CNCC[C@@H]21.Cl.Cl | Percent Effect | -6.101
COC(=O)c1ccc(C2SCC(=O)Nc3c2cnn3C(C)(C)C)cc1 (stereo not given) | Percent Effect | 111.9
Cc1c(C2SCC(=O)Nc3c2cnn3C(C)(C)C)cnn1C (stereo not given) | Percent Effect | 122.6
Cc1noc(C)c1CN1CCO[C@H]2CNC[C@H]21.Cl.Cl | Percent Effect | -6.613
COc1cc(C2SCC(=O)Nc3ccsc32)cc(OC)c1O (stereo not given) | Percent Effect | -0.1259
O=C1CSC(c2ccsc2)c2sccc2N1 (stereo not given) | Percent Effect | 0.8024
O=C(C1CC(=O)N(c2ccccc2Br)C1)N1CCC2(CC1)OCCO2 (stereo not given) | Percent Effect | -9.549
CCNCCc1nc2cc(F)ccc2[nH]1.Cl | Percent Effect | -10.45
O=C(O)C(F)(F)F.O=C(O)C(F)(F)F.O=C(O)C(F)(F)F.c1cnc(NC[C@H]2OC[C@@H]3CCN(Cc4cccnc4)C[C@@H]32)nc1 | Percent Effect | 106.3
O=C(C1CCN(S(=O)(=O)N2CCCC2)CC1)N1CCC2(CC1)OCCO2 | Percent Effect | 110.6
Cc1ccc(O[C@@H]2C[C@H]3CN(c4ncc(F)cn4)CCN3C2)cc1.O=C(O)C(F)(F)F.O=C(O)C(F)(F)F | Percent Effect | 83.44
O=C(C1CC=CC1)N1CCC2(CC1)OCCO2 | Percent Effect | 105.5
N#Cc1cnc2ccccc2c1N1CCNCC1 | Percent Effect | -0.76
c1ccc(CN2CC[C@H]3CO[C@H](CNc4ncccn4)[C@H]3C2)nc1 | Percent Effect | -4.696
CNC(=O)[C@H]1C[C@@H]2CN(C(=O)c3ccc(C)nc3)C[C@@H]2N1C | Percent Effect | -27.99
COCCN1CCN(S(C)(=O)=O)Cc2ccc(C)nc21.O=C(O)C(F)(F)F | Percent Effect | 1.772
COCC(=O)N1C[C@@H]2OCCN(Cc3c(C)noc3C)[C@@H]2C1 | Percent Effect | -12.28
O=C(c1cnn2c1OCCC2)N1CCC2(CC1)OCCO2 | Percent Effect | -3.54
Cc1cnc(N2CCN3C[C@H](OCc4ccccn4)C[C@H]3C2)nc1.O=C(O)C(F)(F)F.O=C(O)C(F)(F)F | Percent Effect | 0.855
Cn1c(=O)n(C)c2cc(C3SCC(=O)Nc4ccsc43)ccc21 (stereo not given) | Percent Effect | 27.99
c1csc(CN2CC[C@H]3C[C@H](c4ccncn4)O[C@@H]3C2)c1 | Percent Effect | 13.32
O=C(O)C(F)(F)F.O=C(O)C(F)(F)F.O=C1CC2(CCN(Cc3cccnc3)C2)CN1c1cncnc1 (stereo not given) | Percent Effect | -5.386
O=C(C1CCCCC1)N1CCC2(CC1)OCCO2 | Percent Effect | 92.72
O=C(O)C(F)(F)F.O=C(O)C(F)(F)F.c1ccc(CN2CCCC3(CCN(CC4CCCO4)CC3)C2)nc1 (stereo not given) | Percent Effect | 98.44
CC(C)(C)n1ncc2c1NC(=O)CSC2c1ccsc1 (stereo not given) | Percent Effect | 129
O=C(O)C(F)(F)F.O=C(O)C(F)(F)F.c1ccc(CN2CC[C@H]3CO[C@H](CNc4ncccn4)[C@H]3C2)cc1 | Percent Effect | 109.8
O=C(NCC1CC1)[C@@H]1C[C@@H]2OCCN[C@@H]2C1.O=C(O)C(F)(F)F | Percent Effect | 8.68
CN1CCC2(CCN(C(=O)c3cccnc3)C2)C1 (stereo not given) | Percent Effect | 103.3
O=C(O)C(F)(F)F.O=C(O)C(F)(F)F.c1ccc(CO[C@@H]2C[C@H]3CN(c4ncccn4)CCN3C2)cc1 | Percent Effect | 2.223
CN(Cc1cc(C2CC2)on1)C(=O)CN1CC(c2ccccc2)CC1=O (stereo not given) | Percent Effect | -9.848
